target: hCB1 (Homo sapiens); test: Antagonism of CB1 receptors expressed in CHO cells, cAMP assay against CP 55,940 (Protocol IX.1); assay type: cell-based; set-up: expressed in transfected cells; host or cells: CHO (h-CB1/CHO, G418-selected); conditions: at 10 uM, h-CB1/CHO cells, cAMP, vs 30 nM CP 55,940; read-out: hCB1 Antagonism
Sequence (P21554 whole entry): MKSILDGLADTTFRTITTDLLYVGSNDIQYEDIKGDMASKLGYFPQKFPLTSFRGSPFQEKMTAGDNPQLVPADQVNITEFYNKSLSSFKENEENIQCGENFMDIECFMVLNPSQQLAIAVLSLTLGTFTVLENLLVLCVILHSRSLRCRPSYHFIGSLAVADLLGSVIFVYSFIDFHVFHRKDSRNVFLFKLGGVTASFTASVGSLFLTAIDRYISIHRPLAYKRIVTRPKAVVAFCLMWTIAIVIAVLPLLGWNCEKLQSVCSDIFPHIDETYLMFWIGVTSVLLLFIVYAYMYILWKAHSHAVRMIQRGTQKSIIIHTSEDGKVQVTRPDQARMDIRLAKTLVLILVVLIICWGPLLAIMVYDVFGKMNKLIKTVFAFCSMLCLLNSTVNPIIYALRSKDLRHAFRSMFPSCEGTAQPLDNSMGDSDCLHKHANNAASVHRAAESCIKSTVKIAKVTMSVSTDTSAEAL
Documented inhibition at 10 µM across a set of compounds

compound: O=C(NCc1ccccc1Cl)c1nn(-c2ccc(Cl)cc2)c2c1C1CCC2C1 (stereo not drawn) [Example 221]
inhibition at 10 µM: 0%

compound: O=C(NCc1ccccc1F)c1nn(-c2ccc(Cl)cc2Cl)c2c1C1CCC2C1 (stereo not drawn) [Example 245]
inhibition at 10 µM: 70.7%

compound: CC(C)(C)NC(=O)c1nn(-c2ccc(F)cc2)c2c1C1CCC2C1 (stereo not drawn) [Example 323]
inhibition at 10 µM: 0%

compound: O=C(NNc1ccccc1F)c1nn(-c2ccc(F)cc2F)c2c1C1CCC2C1 (stereo not drawn) [Example 288]
inhibition at 10 µM: 55.3%

compound: O=C(NCc1ccccc1)c1n[nH]c2c1C1CC3CC(CC2C3)C1 [Example 186]
inhibition at 10 µM: 0%

compound: O=C(NNc1ccc(F)cc1F)c1nn(-c2ccc(Cl)cc2)c2c1C1CCC2C1 (stereo not drawn) [Example 235]
inhibition at 10 µM: 59.9%

compound: O=C(NCc1ccc(Cl)cc1Cl)c1nn(-c2ccc(Cl)cc2Cl)c2c1C1CCC2C1 (stereo not drawn) [Example 251]
inhibition at 10 µM: 0%

compound: O=C(NCC1CC1)c1nn(-c2ccc(F)cc2F)c2c1C1CCC2C1 (stereo not drawn) [Example 314]
inhibition at 10 µM: 0%

compound: CC(C)(C)c1ccc(NC(=O)c2nn(-c3ccc(Cl)cc3)c3c2C2CCC3C2)cc1 (stereo not drawn) [Example 219]
inhibition at 10 µM: 33.4%

compound: O=C(NNc1ccc(Cl)cc1Cl)c1nn(-c2ccc(F)cc2F)c2c1C1CC3CC(C1)CC2C3 [Example 150]
inhibition at 10 µM: 42.9%

compound: Cl.O=C(NNc1ccccc1)c1nn(-c2ccc(Cl)cc2)c2c1C1CC3CC(C1)CC2C3 [Example 122, hydrochloride]
inhibition at 10 µM: 40.7%

compound: O=C(NC1CCC1)c1nn(-c2ccc(F)cc2F)c2c1C1CCC2C1 (stereo not drawn) [Example 315]
inhibition at 10 µM: 1%

compound: O=C(Nc1ccc(F)cc1F)c1nn(-c2ccc(Cl)cc2Cl)c2c1C1CCC2C1 (stereo not drawn) [Example 244]
inhibition at 10 µM: 61.5%

compound: O=C(NCc1ccc(F)cc1)c1nn(-c2ccc(Cl)cc2)c2c1C1CCC2C1 (stereo not drawn) [Example 226]
inhibition at 10 µM: 71%

compound: O=C(NCc1ccc(F)cc1F)c1nn(-c2ccc(Cl)cc2Cl)c2c1C1CCC2C1 (stereo not drawn) [Example 247]
inhibition at 10 µM: 75.3%

compound: CN(NC(=O)c1nn(-c2ccc(Cl)cc2)c2c1C1CCC2C1)C1CCCCC1 (stereo not drawn) [Example 213]
inhibition at 10 µM: 0%

compound: O=C(NCc1ccccc1Cl)c1nn(-c2ccc(F)cc2F)c2c1C1CC3CC(C1)CC2C3 [Example 149]
inhibition at 10 µM: 16%

compound: CC(C)(C)NC(=O)c1nn(-c2ccc(F)cc2F)c2c1[C@@H]1CC[C@H]2C1 (single isomer, unassigned) [Example 304]
inhibition at 10 µM: 0%

compound: O=C(NNc1ncccc1Cl)c1nn(-c2ccc(Cl)cc2)c2c1C1CC3CC(C1)CC2C3 [Example 134]
inhibition at 10 µM: 17.5%

compound: O=C(NC1CCCC1)c1nn(-c2ccc(Cl)cc2)c2c1C1CCC2C1 (stereo not drawn) [Example 212]
inhibition at 10 µM: 39.1%

compound: O=C(NC1CCCCC1)c1nn(-c2ccc(Br)cc2)c2c1C1CCC2C1 (stereo not drawn) [Example 275]
inhibition at 10 µM: 0%

compound: O=C(N[C@@H](CO)c1ccccc1)c1nn(-c2ccc(F)cc2F)c2c1C1CCC2C1 (stereo partly drawn) [Example 320]
inhibition at 10 µM: 0%

compound: O=C(NCc1ccc(Cl)cc1Cl)c1nn(-c2ccc(Cl)cc2)c2c1C1CCC2C1 (stereo not drawn) [Example 223]
inhibition at 10 µM: 0%

compound: O=C(NC1CCCCC1)c1nn(-c2ccccc2)c2c1C1CCC2C1 (stereo not drawn) [Example 202]
inhibition at 10 µM: 0%
